Attribution: paper PMC6315490

Assay: MTT cytotoxicity assay, normal liver cell LO2
Assay type: cell-based
Conditions: human; MTT method; LO2 normal liver cells
pIC50: −log10 of the molar value.
Experimental Readout: pIC50

Example compounds with recorded pIC50:
[[record]]
compound = "Cc1cc(O)c2c3c(cc(O)c2c1)C(=O)c1c(ccc(C2CC4OC5CC(=O)C(C)OC5OC4C(C)O2)c1O)C3=O (stereo not drawn) [Compound 1, landomycin N]"
value_observed = "< 4.40"

[[record]]
compound = "CC1OC(OC2CCC(OC(C)(CC(=O)O)Cc3ccc4c(c3O)C(=O)c3ccc(C5CC6OC7CC(=O)C(C)OC7OC6C(C)O5)c(O)c3C4=O)OC2C)C=CC1=O (stereo not drawn) [Compound 3, vineomycin D]"
value_observed = "< 4.40"


Read the next record carefully.
Task: I have this compound here, Cc1cc(O)c2cc3c(c(O)c2c1)C(=O)c1ccc(C2CC4OC5CC(=O)C(C)OC5OC4C(C)O2)c(O)c1C3=O (stereo not drawn) [Compound 2, galtamycin C] , and I need its recorded pIC50.
Output: < 4.40
